Experiment: AUC (0 to t) in C57BL/6 mouse at 3 mg/kg, po administered as cassette dose
Assay type: ADME, organism-based
Conditions: in vivo
endpoint.label: AUC(0-t) (µg·h/mL)

[a] N#Cc1ccc(-c2cccc3ncnn23)cc1
[b] CC(=O)Nc1cc(-c2ccc(C#N)cc2C)n2ncnc2c1
[c] Cc1cc(C#N)ccc1-c1cccc2ncnn12
[d] Cc1cc(C#N)ccc1-c1cc(N)cc2ncnn12
Q: Arrange these 4 molecules in increasing order of AUC(0-t). Reply: labels, ordered per the request.
Ans: a, c, b, d

====

Assay: Kinetic solubility of the compound by LC-UV/MS analysis
Assay type: physicochemical
Conditions: read-out: Kinetic_solubility
endpoint.label: solubility kinetic (µM)

# smiles.string, measured.value
rows = [
    ("Cc1cc(C#N)ccc1-c1cccc2ncnn12", 189),
]

[P] CC(=O)Nc1cc(-c2ccc(C#N)cc2C)n2ncnc2c1
[Q] N#Cc1ccc(-c2cccc3ncnn23)cc1
[R] Cc1cc(C#N)ccc1-c1cc(N)cc2ncnn12
Q: Thanks in advance: please rank these 3 entries by solubility kinetic, highest to lowest. Reply: labels, ordered per the request.
Ans: R, P, Q
(R: 151 µM, P: 99 µM, Q: 44 µM)
